Data provenance is patent US9801960B2.

Assay: Excitation and fluorescence emission wavelength measurement
Format: physicochemical
Details: aqueous solution: 10 mg/mL solution in DMSO diluted 500-fold with purified water
assay_metric: Fluorescence emission wavelength λem (nm)
Express your answer in nm, writing the number without its unit.

Use these answered entries as a reference point.
COc1ccc(N2c3ccc(/C=C(\C#N)C(=O)O)cc3C3CCCC32)cc1 (centres unmarked) ... 585
O=C(O)C[n+]1c(/C=C/c2ccc3c(c2)C2CCCC2N3Cc2ccccc2)sc2ccccc21 (centres unmarked) ... 611
O=C(O)CN1C(=O)/C(=C\c2ccc3c(c2)C2CCCC2N3Cc2ccccc2)SC1=S (centres unmarked) ... 607
CCCCN1C(=O)/C(=c2\s/c(=C/c3ccc4c(c3)C3CCCC3N4c3ccccc3)c(=O)n2CC(=O)OCC)SC1=S (centres unmarked) ... 609

Let us examine a further case.
INPUT: I have this compound here, CC1=NN(c2ccccc2)C(=O)/C1=C\c1cc(Br)c2c(c1)C1CCCC1N2c1ccc(Br)cc1 (centres unmarked) , and I need its recorded Fluorescence emission wavelength λem.
OUTPUT: 598
